All values here come from ChEMBL document CHEMBL4513216.

Item-by-item account of INHIBITION
System: Plasmodium berghei
Assay: Screen against P. berghei liver stage (PbLuc), transformed with Luciferase, at 10uM
Type: functional, HepG2
Conditions: tested at 10 uM
About 8,600 (12%) of roughly 69,000 compounds showed an effect of 50% or more. Shown is part of a subset that was picked to be rich in strong results.
measured_attribute: INHIBITION (%)

compound="CC(c1ccon1)N(C)C(=O)C1CCN(C(=O)C2CC2)CC1 (stereo not given)" measured_attribute=INHIBITION reported=34
compound=CC(=O)N(Cc1ccoc1)C1CCCCC1 measured_attribute=INHIBITION reported=-29.5
compound=CC(C)N1CCC(c2cccc(C(=O)N(C)C)n2)CC1 measured_attribute=INHIBITION reported=-7.66
compound=CN(Cc1ccccc1F)C(=O)c1cc(Cl)c[nH]1 measured_attribute=INHIBITION reported=15.4
compound=CCC1=N[C@@]2(CC[C@@H]3CN(CC4CC4)C[C@@H]32)C(=O)N1C measured_attribute=INHIBITION reported=24.5
compound="Cc1cc2nc(C(C)C)cc(NC(C)c3nncn3C3CCCC3)n2n1 (stereo not given)" measured_attribute=INHIBITION reported=51.2
compound=COc1ccccc1OCCCc1cc(C)nc(N)n1 measured_attribute=INHIBITION reported=-16.7
compound=Cc1cc(N(C)CCOc2ccccc2F)nc(N)n1 measured_attribute=INHIBITION reported=65.7
compound="Cc1cc2nc(C(C)C)cc(NC(C)c3nncn3C)n2n1 (stereo not given)" measured_attribute=INHIBITION reported=47.6
compound="O=C1NCC2(CCCN(C(=O)c3c[nH]nc3-c3cccs3)C2)O1 (stereo not given)" measured_attribute=INHIBITION reported=6.29
compound="CCN1CCN(C(C)CNC(=O)Nc2cnn(CC)c2)CC1 (stereo not given)" measured_attribute=INHIBITION reported=44.1
compound="CCc1nc(C2CCCN2C(=O)c2ccc3c(c2)[nH]c(=O)n3C)no1 (stereo not given)" measured_attribute=INHIBITION reported=-21.7
compound="CN(CCOc1ccccc1F)C1CCOC1=O (stereo not given)" measured_attribute=INHIBITION reported=33
compound="Cc1cc(NC(C)c2nncn2C2CCCC2)n2nc(C)cc2n1 (stereo not given)" measured_attribute=INHIBITION reported=35.8
compound="O=C(CCc1nnc(-c2ccsc2)o1)NCC1CCN(C2CC2)C1 (stereo not given)" measured_attribute=INHIBITION reported=-6.04
compound="CC(C)N1CCC(C(=O)N(C)C(C)c2ccon2)CC1 (stereo not given)" measured_attribute=INHIBITION reported=1.94
compound="CC(c1ccon1)N(C)C(=O)C1CCN(C(=O)C2CCC2)CC1 (stereo not given)" measured_attribute=INHIBITION reported=57.5
compound=Cc1ccc(-c2ncc(CNc3cnccc3CO)s2)cc1 measured_attribute=INHIBITION reported=80
compound="Cc1cnn(CC2CCCCN2Cc2nnsc2Cl)c1 (stereo not given)" measured_attribute=INHIBITION reported=-17.6
compound=CN(Cc1cnc(N)nc1)C(=O)C1CCN(C(=O)C2CCCC2)CC1 measured_attribute=INHIBITION reported=44.3
compound=Cc1ccc(CN(C)Cc2cnc(N3CCOCC3)s2)o1 measured_attribute=INHIBITION reported=35.8
compound="CC(C)Nc1nc(O)cc(C(C)n2ncc3ccccc3c2=O)n1 (stereo not given)" measured_attribute=INHIBITION reported=29.9
compound=COc1ccc(OCCN(C)c2cc(C)nc(N)n2)cc1 measured_attribute=INHIBITION reported=45.4
compound="CCN1CC(C(=O)NCc2ccnc(-n3cccn3)c2)CC1=O (stereo not given)" measured_attribute=INHIBITION reported=-12.33
compound=Cc1noc(C)c1CN1CC[C@H]2OCC[C@@]2(C(=O)N2CCOCC2)C1 measured_attribute=INHIBITION reported=47.4
